# System Under Test: ENO1 (Enolase 1, α isoform of enolase) (Homo sapiens, UniProt P06733, K358Q)
# Construct: recombinant protein expressed in E. coli (printed for the mutants), amine-coupled to CM5 chip
# Sequence (P06733 2-434 K358Q): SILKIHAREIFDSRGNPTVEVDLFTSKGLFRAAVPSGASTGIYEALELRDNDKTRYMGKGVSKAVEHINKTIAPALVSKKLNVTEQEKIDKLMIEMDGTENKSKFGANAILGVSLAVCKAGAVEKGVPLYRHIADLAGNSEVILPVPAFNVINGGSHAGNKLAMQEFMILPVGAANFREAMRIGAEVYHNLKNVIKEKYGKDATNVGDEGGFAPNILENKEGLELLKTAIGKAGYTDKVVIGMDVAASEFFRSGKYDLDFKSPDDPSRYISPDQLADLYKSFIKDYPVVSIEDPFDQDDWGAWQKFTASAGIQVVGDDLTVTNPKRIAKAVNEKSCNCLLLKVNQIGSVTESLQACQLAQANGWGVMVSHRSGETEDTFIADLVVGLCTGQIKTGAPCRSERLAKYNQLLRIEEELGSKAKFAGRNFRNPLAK
# Procedure Text: SPR steady-state affinity (Biacore T200, CM5 chip)
Outcome Measure: Kd (µM)
// units = µM; emit number, no label

**Query** // lookup Kd for O=C(O)[C@@H](CO)OP(=O)(O)O
**Result** 17.7

###

# System Under Test: ENO1 (Enolase 1, α isoform of enolase) (Homo sapiens, UniProt P06733, K358R)
# Construct: recombinant protein expressed in E. coli (printed for the mutants), amine-coupled to CM5 chip
# Sequence (P06733 2-434 K358R): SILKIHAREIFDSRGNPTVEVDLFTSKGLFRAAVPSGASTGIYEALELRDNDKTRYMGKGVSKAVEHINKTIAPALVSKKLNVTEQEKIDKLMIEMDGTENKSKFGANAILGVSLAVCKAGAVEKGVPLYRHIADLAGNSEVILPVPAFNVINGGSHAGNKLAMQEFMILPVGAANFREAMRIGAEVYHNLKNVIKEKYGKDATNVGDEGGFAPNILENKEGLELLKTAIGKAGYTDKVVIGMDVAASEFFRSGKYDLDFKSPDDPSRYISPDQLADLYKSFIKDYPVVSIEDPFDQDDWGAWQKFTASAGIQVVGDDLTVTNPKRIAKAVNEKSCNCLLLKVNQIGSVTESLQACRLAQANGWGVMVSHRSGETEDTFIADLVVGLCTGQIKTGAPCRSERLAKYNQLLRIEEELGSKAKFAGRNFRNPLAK
# Procedure Text: SPR steady-state affinity (Biacore T200, CM5 chip)
Outcome Measure: pKd
Expect pKd as a plain number equal to -log10 of the molar concentration.

**Query** // lookup pKd for O=C(O)[C@@H](CO)OP(=O)(O)O
**Result** 5.58
